tested on: KB-3-1; assay: Cytotoxic Profiling of Annotated Libraries Using Quantitative High-Throughput Screening (AID 1296008); settings: Five cell lines viability, CellTiter-Glo ATP luminescence, 48-72 h; note: nearly all actives have a fitted effect of over 60% in size
Results filed as inconclusive are left out. Calls of active or inactive are those of the source. Calls come from the whole dose curve; as a rule, active = well fitted inhibition curve with a large enough effect; inconclusive = small, poorly fitted or top-dose-only effect; inactive = flat fitted curve, though single readings scatter.
Write down the outcome that applies. Available outcomes: y = active, n = inactive

| compound | cat |
| --- | --- |
| O=C(/C=C/c1cccc(S(=O)(=O)Nc2ccccc2)c1)NO | y |
| COc1cc(C2c3cc4c(c(O)c3CC(CO)C2C(=O)O)OCO4)cc(OC)c1O (centres undefined) | y |
| CCC1=CC2CN(C1)Cc1c([nH]c3ccccc13)[C@@](C(=O)OC)(c1cc3c(cc1OC)N(C)[C@H]1[C@@](O)(C(=O)OC)[C@H](OC(C)=O)[C@]4(CC)C=CCN5CC[C@]31[C@@H]54)C2 (some centres undefined) | y |

Query: Hi, do you know how C[C@@H]1N[C@H]2N(C1=O)c1ccccc1[C@@]2(O)C[C@@H]1C(=O)N[C@@H](C)c2nc3ccccc3c(=O)n21 came out in this test?
Response: n

----------
test system: CASKI; experiment: Primary qHTS to identify gynecologic anti-cancer compounds using libraries of approved drugs and bioactive compounds (AID 1345084); details: Gynecologic cancer cell panel viability, ATPlite luminescence, 48 h; series mostly up to 57.5 µM; note: nearly all actives have a fitted effect of over 55% in size; for activity change, negative = cytotoxicity: % is set by controls: 0 for no effect and ±100 for the full control effect
Records with an inconclusive call do not appear. Activity calls are given as the source filed them. The call rests on the fitted dose curve; in most records, active means well fitted cell-killing curve with a large enough effect; inconclusive means small, poorly fitted or top-dose-only effect, or effect the other way; inactive means flat fitted curve, though single readings scatter.
quantity-name: activity change, negative = cytotoxicity

Below are worked cases with known answers.
| molecule | activity change, negative = cytotoxicity |
| --- | --- |
| C[C@H](N)C(=O)N[C@@H](Cc1ccc(O)cc1)C(=O)N1CCC[C@H]1C(=O)NCC(=O)N[C@@H](CCCCN)C(=O)N[C@@H](Cc1ccccc1)C(N)=O | 6.63% [at 11.6 µM] (inactive) |
| CC1(C)CCC2(C(=O)OC3OCC(O)C(O)C3O)CCC3(C)C(=CCC4C5(C)CC(O)C(OC6OC(COC7OCC(O)C(O)C7O)C(O)C(O)C6O)C(C)(C)C5CCC43C)C2C1 (stereo unspecified) | 17.9% [at 11.6 µM] (inactive) |
| C[C@@H]1O[C@@H](O[C@@H]2[C@@H](O)[C@H](O[C@H]3[C@H](O[C@H]4CC[C@@]5(C)C(CC[C@]6(C)C5CC=C5[C@@H]7CC(C)(C)CC[C@]7(C(=O)O[C@@H]7O[C@H](CO)[C@@H](O)[C@H](O)[C@H]7O[C@@H]7O[C@@H](C)[C@H](O[C@@H]8O[C@@H](C)[C@H](O)[C@@H](O)[C@H]8O)[C@@H](O)[C@H]7O)CC[C@]56C)[C@@]4(C)CO)O[C@H](C(=O)O)[C@@H](O)[C@@H]3O)O[C@H](CO)[C@H]2O)[C@H](O)[C@H](O)[C@H]1O (stereo partly specified) | 3.98% [at 6.55 µM] (inactive) |
| C[C@@H]1O[C@@H](O[C@H]2[C@H](OC(=O)[C@]34CCC(C)(C)C[C@H]3C3=CCC5[C@@]6(C)C[C@H](O)[C@H](O[C@@H]7O[C@H](CO)[C@@H](O)[C@H](O)[C@H]7O)[C@@](C)(CO)C6[C@H](O)C[C@@]5(C)[C@]3(C)CC4)OC[C@H](O)[C@@H]2O)[C@H](O)[C@H](O)[C@H]1O[C@@H]1OC[C@@H](O)[C@H](O[C@@H]2OC[C@](O)(CO)[C@H]2O)[C@H]1O (stereo partly specified) | 15.5% [at 6.55 µM] (inactive) |
| C[C@@H]1O[C@@H](O[C@H]2[C@H](O[C@H]3[C@H](O)[C@@H](C(=O)O)O[C@@H](O[C@H]4CC[C@@]5(C)C(CC[C@]6(C)C5CC[C@]57OC[C@@]8(CCC(C)(C)CC85)[C@H](O)C[C@]76C)C4(C)C)[C@@H]3O[C@@H]3O[C@H](CO)[C@@H](O[C@@H]4OC[C@@H](O)[C@H](O)[C@H]4O)[C@H](O)[C@H]3O)O[C@H](CO)[C@H](O)[C@@H]2O)[C@H](O)[C@H](O)[C@H]1O (stereo partly specified) | 3.57% [at 6.55 µM] (inactive) |

Consider the additional molecule presented here.
Query: What activity change, negative = cytotoxicity appears in the records for this molecule with CASKI? C[C@@H]1O[C@@H](O[C@@H]2CO[C@@H](O[C@H]3CC[C@@]4(C)C(CC[C@]5(C)C4CC=C4[C@@H]6CC(C)(C)CC[C@]6(C(=O)O[C@@H]6O[C@H](CO)[C@@H](O)[C@H](O)[C@H]6O)CC[C@]45C)[C@]3(C)CO)[C@H](O)[C@H]2O[C@@H]2O[C@H](CO)[C@@H](O)[C@H](O)[C@H]2O)[C@H](O)[C@H](O)[C@H]1O (stereo partly specified)
Response: 3.56% [at 11.6 µM] (inactive)

----------
system: Tov-21-G; experiment: Primary qHTS to identify gynecologic anti-cancer compounds using libraries of approved drugs and bioactive compounds (AID 1345084); conditions: Gynecologic cancer cell panel viability, ATPlite luminescence, 48 h; series mostly up to 57.5 µM; note: nearly all actives have a fitted effect of over 55% in size
Results filed as inconclusive are left out. The source made the active and inactive calls. The call rests on the fitted dose curve; in most records, active means well fitted cell-killing curve with a large enough effect; inconclusive means small, poorly fitted or top-dose-only effect, or effect the other way; inactive means flat fitted curve, though single readings scatter.
Write down the outcome that applies. Available outcomes: Yes (active), No (inactive)

Solved entries:
| molecule | measurement-target | cat |
| --- | --- | --- |
| O=C(Nc1ccccc1-c1cn2c(CN3CCNCC3)csc2n1)c1ccc2ccccc2n1 | Tov-21-G | No |
| C(#Cc1nc2ncccc2nc1OCCN1CCCC1)c1ccccc1 | Tov-21-G | Yes |
| C=C1C(O)C[C@@H]2C(C(=O)O)=CO[C@@H](O[C@@H]3O[C@H](CO)[C@@H](O)[C@H](O)[C@H]3OC(=O)c3ccc(O)cc3)[C@H]12 (some centres undefined) | Tov-21-G | No |

Query: Hi, do you know how Cc1cc(OCc2nnc(SC3CCCC3)n2-c2cccnc2)ccc1-c1ccc(S(C)(=O)=O)cc1 came out in this test?
Response: Yes

----------
Assay: qHTS drug screen for cell cycle checkpoint inhibitors in PARPi-resistant BRCA-mutant ovarian cancer cell lines. (AID 1963452)
Conditions: PEO1/OlaR viability, CellTiter-Glo luminescence, 96 h; measured here: PEO1 parental Z-AUC; stronger effect = lower value
Source text: Women's Malignancies Branch, Center for Cancer Research (CCR), National Cancer Institute (NCI), National Institutes of Health (NIH), Bethesda, MD Poly (ADP-ribose) polymerase inhibitors (PARPis) have changed the treatment paradigm in breast cancer gene (BRCA) - mutant high-grade serous ovarian carcinoma (HGSC). […] 6; Detection; Luminescence, PHERAstar (BMG Labtech) plate reader. […] 6. Luminescence readings were taken using PHERAstar (BMG Labtech). […]
Hi there, I'd appreciate the recorded Z-AUC for every entry that follows.
Answers are plain numbers.

Below are worked cases with known answers.
| compound | Z-AUC |
| --- | --- |
| CO[C@@H](C)Cn1c(=O)n(C)c2cnc3ccc(-c4cncc(C(C)(C)O)c4)cc3c21 | -2.24 |
| COCCOc1cnc2ccn([C@H](C)c3nnc4c(F)cc(-c5cnn(C)c5)cn34)c(=O)c2c1 | 0.929 |
| Nc1nccn2c(C3CCC(C(=O)O)CC3)nc(-c3cc4cccc(Cl)c4[nH]3)c12 (stereo unspecified) | -0.773 |
| NC[C@@](O)(c1ccc(Cl)cc1)c1ccc(-c2cn[nH]c2)cc1 | -1.09 |
| CC#CC(=O)N1CCC[C@H]1c1nc(-c2ccc(C(=O)Nc3ccccn3)cc2)c2c(N)nccn12 | 0.632 |
| COC(=O)N[C@@H](C)CNc1nccc(-c2cn(C(C)C)nc2-c2cc(Cl)cc(NS(C)(=O)=O)c2F)n1 | -0.151 |

Fill in Z-AUC for each of the 8 compounds listed.
1. Cc1c(NC(=O)c2cc(C(N)=O)nc3cc(F)ccc23)c(C(F)(F)F)nn1Cc1ccc(C#N)cc1
2. CS(=O)(=O)N1CCC(NC(=O)c2[nH]ncc2NC(=O)c2c(Cl)cccc2Cl)CC1
3. CCn1c(=O)c(-c2ccn[nH]2)cc2c(C)nc(N)nc21
4. C=C1C(=O)O[C@H]2[C@H]1CC/C(C)=C/CC[C@@]1(C)O[C@@H]21
5. O=C(c1ccc(/C=C/c2n[nH]c3ccccc23)cc1)N1CCNCC1
6. COc1cc(C(=O)NC2CCN(C)CC2)c(F)cc1Nc1ncc2c(n1)N(C1CCCC1)CC(F)(F)C(=O)N2C
7. CCO[C@@H]1OC(=O)C[C@@H]1NC(=O)[C@@H]1CCCN1C(=O)[C@@H](NC(=O)c1ccc(N)c(Cl)c1)C(C)(C)C
8. Cc1cc(OCc2nnc(SC3CCCC3)n2-c2cccnc2)ccc1-c1ccc(S(C)(=O)=O)cc1

Response:
-1.49
-1.73
-0.106
0.881
-0.223
-2.61
0.457
-3

Fill in Z-AUC for each of the 2 compounds listed.
1. O=C(NOCC(O)CO)c1ccc(F)c(F)c1Nc1ccc(I)cc1F (stereo unspecified)
2. CC(O)c1cc(C(=O)N[C@@H](C)Cn2ccc(-c3ccc(C#N)c(Cl)c3)n2)n[nH]1 (stereo partly specified)

Response:
1. -1.32
2. -0.668

Fill in Z-AUC for each of the 4 compounds listed.
1. COc1ccc(Cl)c(Nc2nc3ccccc3nc2NS(=O)(=O)c2cccc(NC(=O)C(C)(C)N)c2)c1
2. Cc1ccc(NC(=O)Nc2cc(C(F)(F)F)ccc2F)cc1Nc1ccc2c(c1)NC(=O)/C2=C\c1ccc[nH]1
3. CCNC(=O)Nc1ncc(-c2cc(-c3c(C)cc(OC)cc3C)nc(-c3cnccn3)n2)s1
4. CCN1CCN(Cc2ccc(NC(=O)c3ccc(C)c(NC(=O)c4cncc(-c5cccs5)c4)c3)cc2C(F)(F)F)CC1

Response:
[0.542, 0.106, 1.44, -1.46]

Fill in Z-AUC for each of the 3 compounds listed.
1. Cc1[nH]nc(C(F)(F)F)c1Cc1sc2c(c1C(=O)N1C[C@](C)(O)CO1)c(=O)n(C)c(=O)n2C(C)C
2. O=C(O)c1ccc(CN2CCC(CN[C@@H]3C[C@H]3c3ccccc3)CC2)cc1
3. c1cc(Nc2cc(C3CC3)[nH]n2)nc(Nc2ccc3nc[nH]c3c2)n1

Response:
1: 0.611; 2: 1.03; 3: -2.08

Fill in Z-AUC for each of the 2 compounds listed.
1. CC(C)c1cc(CNc2nc(Nc3cc(C4CC4)[nH]n3)cc(N3CCN(C)CC3)n2)on1
2. Cc1cc(C)c(CNC(=O)c2cc(-c3ccc(CN4CCOCC4)cc3)cc3c2cnn3C2CCCC2)c(=O)[nH]1

Response:
[-1.91, -0.591]

Fill in Z-AUC for each of the 3 compounds listed.
1. NC(=O)[C@H]1CCS[C@@H]2C[C@]3(CCCN3C(=O)Cc3ccc(NC(=O)COc4ccc(Cl)cc4Cl)cc3)C(=O)N12
2. Clc1cc2c(NC3CCCC3)nnc(-c3ccncc3)c2cc1Cl
3. CNC(=O)c1cc(Oc2ccc3nc(N[C@@H]4CCCC[C@H]4O)sc3c2)ccn1

Response:
1: 0.014; 2: 0.551; 3: -0.612

Fill in Z-AUC for each of the 7 compounds listed.
1. CNC(=O)c1cccc(-c2ccc3c(N4CCOC[C@@H]4C)nc(N4CCOC[C@@H]4C)nc3n2)c1
2. Cc1nc([C@](C)(O)CO)sc1-c1cnc(N)c(O[C@H](C)c2cc(F)ccc2-n2nccn2)c1
3. COc1cc2ncnc(Nc3ccc(F)c(Cl)c3)c2cc1NC(=O)/C=C/CN1CCCCC1
4. Cc1ccc([N+](=O)[O-])cc1S(=O)(=O)N(C)/N=C/c1cnc2ccc(Br)cn12
5. C[C@@H]1CCN(C(=O)N2CCCC2)C[C@@H]1N(C)c1ncnc2[nH]ccc12
6. CCN1CCN(Cc2ccc(Nc3ncc(F)c(-c4cc(F)c5nc(C)n(C(C)C)c5c4)n3)nc2)CC1
7. COc1cc2c(NC3CCN(CC4CCCCC4)CC3)nc(N3CCCN(C(C)C)CC3)nc2cc1OCCCN1CCCCC1

Response:
-0.895
0.437
-1.17
-2.53
0.799
0.712
0.301

Query: Recorded Z-AUC of CN1CCN(c2ccc(C(=O)Nc3n[nH]c4ccc(Cc5cc(F)cc(F)c5)cc34)c(NC3CCOCC3)c2)CC1 , please.
Response: -1.2

Source listed as PubChem BioAssay (NCATS).
